Target: CaN PxIxIT binding site (CaNA, catalytic subunit of calcineurin) (Homo sapiens, UniProt Q08209, L343A/M347D/Y341S)
Construct: GST; made in house; host or cells: E. coli BL21
Sequence (Q08209 2-347 Y341S/L343A/M347D): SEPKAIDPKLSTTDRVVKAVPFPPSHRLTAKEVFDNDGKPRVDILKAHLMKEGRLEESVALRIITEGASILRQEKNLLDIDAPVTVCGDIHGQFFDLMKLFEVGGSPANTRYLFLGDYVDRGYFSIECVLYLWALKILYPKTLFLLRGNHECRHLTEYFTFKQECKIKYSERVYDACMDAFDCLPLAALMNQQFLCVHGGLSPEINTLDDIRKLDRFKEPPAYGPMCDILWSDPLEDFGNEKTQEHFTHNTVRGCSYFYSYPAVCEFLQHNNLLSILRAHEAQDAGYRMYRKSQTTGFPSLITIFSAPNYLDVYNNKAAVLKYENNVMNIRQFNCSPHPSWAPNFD
Assay: Fluorescence Polarization (FP) competition assay with FITC-labeled PVIVIT peptide
Conditions: competition with 100 nM FITC-labeled PVIVIT peptide, 4 uM CaNA; single site inhibition model; read-out: IC50: half maximal inhibitory concentration
Let's look at some substances and their measured pIC50.
// pIC50: -log10(molar conc.)

Ac-ADEAIPEIVISKPEEP-NH2 [rbmTRESK]
4.85

q: Tell me the measured pIC50 of Ac-ADEAVPQIIISAEELP-NH2 [TRESK, reference compound] , please.
a: 4.27
